- Assay System: T1, Human VE-PTP (HPTP-β) containing first eight FN3 repeats with C-terminal His6 tag (Human ½ VE-PTP ECD) (human, UniProt P23467 23-820)
- T1 construct: Produced in HEK293 cells and purified by the His tag; it was not cut off; also called Human Beta ½ ECD
- T1 sequence: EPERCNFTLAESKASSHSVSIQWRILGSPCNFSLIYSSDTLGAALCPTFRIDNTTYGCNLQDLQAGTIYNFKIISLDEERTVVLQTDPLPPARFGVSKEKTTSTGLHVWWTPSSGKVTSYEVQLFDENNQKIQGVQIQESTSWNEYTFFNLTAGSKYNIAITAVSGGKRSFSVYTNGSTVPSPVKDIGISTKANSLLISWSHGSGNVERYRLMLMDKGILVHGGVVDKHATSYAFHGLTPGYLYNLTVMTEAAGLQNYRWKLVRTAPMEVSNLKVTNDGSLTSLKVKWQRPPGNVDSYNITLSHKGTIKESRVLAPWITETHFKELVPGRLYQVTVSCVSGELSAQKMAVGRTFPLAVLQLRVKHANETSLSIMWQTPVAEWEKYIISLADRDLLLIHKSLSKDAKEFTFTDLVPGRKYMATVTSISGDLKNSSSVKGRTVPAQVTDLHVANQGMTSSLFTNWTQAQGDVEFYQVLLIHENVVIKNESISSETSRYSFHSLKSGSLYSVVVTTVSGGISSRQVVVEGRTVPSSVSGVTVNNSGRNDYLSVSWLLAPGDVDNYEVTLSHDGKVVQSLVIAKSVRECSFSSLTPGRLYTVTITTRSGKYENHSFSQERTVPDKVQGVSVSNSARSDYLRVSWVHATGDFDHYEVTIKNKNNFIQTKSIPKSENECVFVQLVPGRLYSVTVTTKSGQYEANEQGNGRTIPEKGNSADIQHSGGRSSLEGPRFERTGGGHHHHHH
- Assay Summary: SPR (Biacore 3000), antibody captured on anti-human IgG, antigen as analyte 100 nM (single concentration)
Exam item: assign met to entries whose koff is below 0.0007 s⁻¹ and not met to entries at or above 0.0007 s⁻¹. Note that a value of exactly 0.0007 s⁻¹ receives not met.

Query: Decide: koff of humanized R15E6 variant HC2LC3 (antibody, human IgG4 S228P, kappa, V domains shown, Human IgG4 (S228P) / kappa, expressed in CHO cells; Signal peptides left out by range; also called VH2-VL3) VH: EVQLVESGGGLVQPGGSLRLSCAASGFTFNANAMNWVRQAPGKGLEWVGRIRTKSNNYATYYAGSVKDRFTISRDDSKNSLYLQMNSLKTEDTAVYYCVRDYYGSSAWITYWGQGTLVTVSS VL: DIQMTQSPFSLSASVGDRVTITCKASQHVGTAVAWYQQKPGKAPKLLIYWASTRHTGVPSRFSGSGSGTDFTLTISSLQPEDFATYFCQQYSSYPFTFGGGTKLEIKR strictly below 0.0007 s⁻¹?
Result: met

Query: Determine whether this binder shows koff lower than 0.0007 s⁻¹ (ties excluded): humanized R15E6 variant HC1LC2 (antibody, human IgG4 S228P, kappa, V domains shown, Human IgG4 (S228P) / kappa, expressed in CHO cells; Signal peptides left out by range; also called VH1-VL2) VH: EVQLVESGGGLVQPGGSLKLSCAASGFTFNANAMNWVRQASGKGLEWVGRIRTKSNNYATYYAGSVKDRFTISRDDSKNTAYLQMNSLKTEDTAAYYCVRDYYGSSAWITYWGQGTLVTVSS VL: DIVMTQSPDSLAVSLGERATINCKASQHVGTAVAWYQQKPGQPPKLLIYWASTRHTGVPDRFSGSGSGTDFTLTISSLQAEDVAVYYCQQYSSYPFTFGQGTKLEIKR
Result: not met

Query: In the record for humanized R15E6 variant HC2LC2 (antibody, human IgG4 S228P, kappa, V domains shown, Human IgG4 (S228P) / kappa, expressed in CHO cells; Signal peptides left out by range; also called VH2-VL2) VH: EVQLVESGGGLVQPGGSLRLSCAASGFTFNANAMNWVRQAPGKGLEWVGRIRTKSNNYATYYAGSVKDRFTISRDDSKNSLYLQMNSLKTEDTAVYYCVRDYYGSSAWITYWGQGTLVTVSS VL: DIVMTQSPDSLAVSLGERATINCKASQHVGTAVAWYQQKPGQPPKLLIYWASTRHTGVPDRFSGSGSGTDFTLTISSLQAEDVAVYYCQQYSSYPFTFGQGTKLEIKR , is koff less than 0.0007 s⁻¹?
Result: met

Query: Hello, I'm reviewing records and need to know if koff of humanized R15E6 variant HC1LC4 (antibody, human IgG4 S228P, kappa, V domains shown, Human IgG4 (S228P) / kappa, expressed in CHO cells; Signal peptides left out by range; also called VH1-VL4) VH: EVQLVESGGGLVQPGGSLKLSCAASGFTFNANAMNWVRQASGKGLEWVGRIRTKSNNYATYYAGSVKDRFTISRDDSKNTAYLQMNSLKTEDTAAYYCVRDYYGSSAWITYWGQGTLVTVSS VL: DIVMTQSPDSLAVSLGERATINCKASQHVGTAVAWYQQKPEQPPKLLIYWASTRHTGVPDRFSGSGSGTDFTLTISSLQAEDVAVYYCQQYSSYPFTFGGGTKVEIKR is below 0.0007 s⁻¹. Could you check?
Result: not met

Query: Confirm or reject: koff of humanized R15E6 variant HC3LC2 (antibody, human IgG4 S228P, kappa, V domains shown, Human IgG4 (S228P) / kappa, expressed in CHO cells; Signal peptides left out by range; also called VH3-VL2) VH: EVQLVESGGGLVQPGRSLRLSCTASGFTFNANAMNWVRQAPGKGLEWVGRIRTKSNNYATYYAGSVKDRFTISRDDSKNIAYLQMNSLKTEDTAVYYCVRDYYGSSAWITYWGQGTLVTVSS VL: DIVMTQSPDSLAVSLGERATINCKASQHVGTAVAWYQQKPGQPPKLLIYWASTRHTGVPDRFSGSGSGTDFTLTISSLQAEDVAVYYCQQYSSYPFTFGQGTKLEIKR lies strictly below 0.0007 s⁻¹
Result: not met

Query: Could you please tell me whether koff recorded for humanized R15E6 variant HC3LC4 (antibody, human IgG4 S228P, kappa, V domains shown, Human IgG4 (S228P) / kappa, expressed in CHO cells; Signal peptides left out by range; also called VH3-VL4) VH: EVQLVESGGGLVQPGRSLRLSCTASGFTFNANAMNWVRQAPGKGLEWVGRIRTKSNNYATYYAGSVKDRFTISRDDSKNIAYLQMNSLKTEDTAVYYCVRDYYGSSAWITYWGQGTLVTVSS VL: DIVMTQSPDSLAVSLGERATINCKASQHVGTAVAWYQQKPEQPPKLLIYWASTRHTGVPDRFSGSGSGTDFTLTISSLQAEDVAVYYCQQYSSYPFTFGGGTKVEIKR is less than 0.0007 s⁻¹?
Result: not met

Query: Is 0.0007 s⁻¹ strictly greater than the binder's reported koff? binder: mouse/human chimeric antibody HC0LC0 (antibody, human IgG4 S228P, kappa, V domains shown, Murine variable domains of R15E6 on human IgG4 (S228P) and kappa constant domains, expressed in CHO cells; also called VH0-VL0) VH: EVQLVETGGGLVQPKGSMKLSCAASGFTFNANAMNWIRQAPGKGLEWVARIRTKSNNYATYYAGSVKDRFTISRDDAQNMLYLQMNDLKTEDTAMYYCVRDYYGSSAWITYWGQGTLVTVSA VL: DIVMTQSHKFMSTSVGDRVSITCKASQHVGTAVAWYQQKPDQSPKQLIYWASTRHTGVPDRFTGSGSGTDFTLTISNVQSEDLADYFCQQYSSYPFTFGSGTKLEIKR
Result: met

Query: Strictly below 0.0007 s⁻¹: is that where koff of humanized R15E6 variant HC2LC4 (antibody, human IgG4 S228P, kappa, V domains shown, Human IgG4 (S228P) / kappa, expressed in CHO cells; Signal peptides left out by range; also called VH2-VL4) VH: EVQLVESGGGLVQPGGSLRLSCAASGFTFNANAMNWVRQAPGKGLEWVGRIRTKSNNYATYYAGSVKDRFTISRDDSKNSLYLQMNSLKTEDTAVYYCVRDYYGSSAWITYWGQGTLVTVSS VL: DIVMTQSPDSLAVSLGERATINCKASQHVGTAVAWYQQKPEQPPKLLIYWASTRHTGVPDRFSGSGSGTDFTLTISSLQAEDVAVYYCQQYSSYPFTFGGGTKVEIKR sits?
Result: met
